- experimental_system: PAR4 (Homo sapiens (Human), UniProt Q96RI0)
- Sequence (Q96RI0 18-385): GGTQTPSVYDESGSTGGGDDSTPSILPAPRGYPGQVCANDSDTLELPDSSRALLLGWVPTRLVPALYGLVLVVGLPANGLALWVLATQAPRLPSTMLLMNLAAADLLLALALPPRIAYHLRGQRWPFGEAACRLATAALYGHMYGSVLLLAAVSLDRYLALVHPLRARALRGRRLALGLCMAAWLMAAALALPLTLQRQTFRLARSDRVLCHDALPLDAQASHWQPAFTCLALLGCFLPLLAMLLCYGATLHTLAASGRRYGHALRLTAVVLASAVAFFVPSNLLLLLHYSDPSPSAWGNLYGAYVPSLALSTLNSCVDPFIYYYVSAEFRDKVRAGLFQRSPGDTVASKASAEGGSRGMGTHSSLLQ
- protocol_summary: FLIPR assay in PAR4-expressing HEK293 cells (PAR4 antagonist activity, calcium mobilization)
- Format: cell-based
- condition_description: FLIPR assay as described in Example A
outcome_measure: log10(IC50) (log10 of the value in nM)

>>> print(df.to_string())
                                   molecule  outcome_measure  measured_number
0  COc1cc2oc(-c3cn4nc(C(C)F)sc4n3)cc2cc1Cl (stereo in doubt) [270A]      log10(IC50)             2.06
1  COc1cc2oc(-c3cn4nc(C(C)(F)F)sc4n3)cc2cc1Cl      log10(IC50)             0.86
2     CSc1nn2cc(-c3cc4c(OCC#N)cccc4o3)nc2s1      log10(IC50)             2.16
3  COc1cc(OCc2cccc(OCc3ccccc3-c3ccccc3)c2)c2cc(-c3cn4nc(OC)sc4n3)oc2c1      log10(IC50)             0.92
4  CSc1nn2cc(-c3nc4cc(OC(F)(F)F)ccc4o3)nc2s1      log10(IC50)             1.91
5   CC(F)(F)c1nn2cc(-c3nc4c(N)cccc4o3)nc2s1      log10(IC50)             3.54
6            COc1nn2cc(-c3nc4ccccc4o3)nc2s1      log10(IC50)             2.15
7        COc1ccc2oc(-c3cn4nc(SC)sc4n3)cc2c1      log10(IC50)             2.57
8  COc1cc(OC[C@H]2CCCN2C(=O)OC(C)(C)C)c2cc(-c3cn4nc(OC)sc4n3)oc2c1      log10(IC50)             0.34

====

- experimental_system: PAR4 (Homo sapiens (Human), UniProt Q96RI0)
- protocol_summary: FLIPR assay in PAR4-expressing HEK293 cells (PAR4 antagonist activity, calcium mobilization)
- Assay type: cell-based
- condition_description: FLIPR assay as described in Example A
outcome_measure: IC50 (µM)

                  compound_structure_string                       experimental_system  outcome_measure  measured_number
0  COc1nn2cc(-c3cc4c(OCc5cccc(OCc6ccccc6)c5)cc(OC(F)F)cc4o3)nc2s1  PAR4 (Homo sapiens (Human), UniProt Q96RI0)             IC50          0.00109
1  CCOc1cc(OCc2cccc(OCc3ccccc3)c2)c2cc(-c3cn4nc(OC)sc4n3)oc2c1  PAR4 (Homo sapiens (Human), UniProt Q96RI0)             IC50          0.00456
2  COc1nn2cc(-c3cc4cc([N+](=O)[O-])ccc4o3)nc2s1  PAR4 (Homo sapiens (Human), UniProt Q96RI0)             IC50           0.0714
3     COc1cc(O)c2cc(-c3cn4nc(OC)sc4n3)oc2c1  PAR4 (Homo sapiens (Human), UniProt Q96RI0)             IC50            0.171
4  COc1cc(OCc2cccc(OCc3c(C)cc(C)cc3C)c2)c2cc(-c3cn4nc(OC)sc4n3)oc2c1  PAR4 (Homo sapiens (Human), UniProt Q96RI0)             IC50          0.00691
5  COc1cc(OCc2cccc(OCc3c(OC)cccc3OC)c2)c2cc(-c3cn4nc(OC)sc4n3)oc2c1  PAR4 (Homo sapiens (Human), UniProt Q96RI0)             IC50          0.00312
6      CCCOc1ccc2nc(-c3cn4nc(CC)sc4n3)oc2c1  PAR4 (Homo sapiens (Human), UniProt Q96RI0)             IC50            0.394
7  CCC(C)(C)c1ccc2oc(-c3cn4nc(SC)sc4n3)nc2c1  PAR4 (Homo sapiens (Human), UniProt Q96RI0)             IC50            0.107

====

- experimental_system: PAR4 (Homo sapiens (Human), UniProt Q96RI0)
- protocol_summary: FLIPR assay in PAR4-expressing HEK293 cells (PAR4 antagonist activity, calcium mobilization)
- Type: cell-based
- condition_description: FLIPR assay as described in Example A
- Excerpt: The FLIPR assay is an exemplary in vitro assay for measuring the activity of the PAR4 antagonists of the present invention. In this assay, intracellular calcium mobilization is induced in PAR4 expressing cells by a PAR4 agonist and calcium mobilization is monitored. See, e.g., Example A. […]
Quick rule for you: IC50 under 20 nM gets Met, anything else gets Not met.

                                   molecule  qualitative_label
0  COc1cc(OCc2cccc(OCc3cc(C)cc(C)c3)c2)c2cc(-c3cn4nc(OC)sc4n3)oc2c1 [Example 382]                Met
1  CSc1nn2cc(-c3cc4cccc(OC(F)(F)F)c4o3)nc2s1 [Example 70]            Not met
2  COc1cc(OCc2cccc(OCc3cccnc3C)c2)c2cc(-c3cn4nc(OC)sc4n3)oc2c1 [Example 308]            Not met
3  CSc1nn2cc(-c3nc4cc(F)c(F)cc4o3)nc2s1 [Example 137]            Not met
4  CSc1nn2cc(-c3nc4ccc(Cl)cc4s3)nc2s1 [Example 188]            Not met
5  CSc1nn2cc(-c3nc4c(OC[C@@H]5CCCN5C(=O)[C@H](NC(=O)OC(C)(C)C)c5ccccc5)cccc4o3)nc2s1 [Example 334]            Not met
6  COc1cc(OCc2cccc(OCc3ccccc3OC(F)(F)F)c2)c2cc(-c3cn4nc(OC)sc4n3)oc2c1 [Example 322]                Met
7  COc1ccc2nc(-c3cn4nc(OC)sc4n3)oc2c1 [Example 164]                Met

====

A collection of compounds and their measured pIC50
- experimental_system: PAR4 (Homo sapiens (Human))
- protocol_summary: FLIPR assay in PAR4-expressing HEK293 cells (PAR4 antagonist activity, calcium mobilization)
- Assay type: cell-based
- condition_description: FLIPR assay as described in Example A
- Source text: The FLIPR assay is an exemplary in vitro assay for measuring the activity of the PAR4 antagonists of the present invention. In this assay, intracellular calcium mobilization is induced in PAR4 expressing cells by a PAR4 agonist and calcium mobilization is monitored. See, e.g., Example A. […]
pIC50: −log10 of the molar value.
outcome_measure: pIC50

In [3]: df
Out[3]:
                  compound_structure_string  outcome_measure  measured_number
0        CCc1cccc2cc(-c3cn4nc(OC)sc4n3)oc12            pIC50             7.89
1   CCOc1cc(OC)cc2oc(-c3cn4nc(OC)sc4n3)cc12            pIC50             8.70
2  COc1cc(OCc2cccc(OCc3ccccc3)c2)c2oc(-c3cn4nc(OC)sc4n3)cc2c1            pIC50             5.43
3  COc1cc(OCc2cccc(OCc3ccccc3Br)c2)c2cc(-c3cn4nc(OC)sc4n3)oc2c1            pIC50             8.61
4        COc1nn2cc(-c3cc4c(Cl)cccc4o3)nc2s1            pIC50             8.51

====

- experimental_system: PAR4 (Homo sapiens (Human))
- protocol_summary: FLIPR assay in PAR4-expressing HEK293 cells (PAR4 antagonist activity, calcium mobilization)
- Assay type: cell-based
- condition_description: FLIPR assay as described in Example A
pIC50: −log10 of the molar value.
I would appreciate it if you labelled entries fulfilled when pIC50 is 8 or higher, otherwise not fulfilled.

>>> print(df.to_string())
                  compound_structure_string  qualitative_label
0        COc1ccc2cc(-c3cn4nc(Br)sc4n3)oc2c1          fulfilled
1  COc1nn2cc(-c3nc4cc(C(C)(C)C)ccc4o3)nc2s1      not fulfilled
2  COc1cc(OCc2cccc(OCc3ccc(OC)c(OC)c3)c2)c2cc(-c3cn4nc(OC)sc4n3)oc2c1          fulfilled
3    COc1nn2cc(-c3cc4c(Br)ccc(OC)c4o3)nc2s1      not fulfilled
4  COc1cc(OCc2cccc(OCc3ccc(C)c(Cl)c3)c2)c2cc(-c3cn4nc(OC)sc4n3)oc2c1          fulfilled
5  COc1cc(OCc2cccc(OCc3cc(Br)ccc3OC)c2)c2cc(-c3cn4nc(OC)sc4n3)oc2c1          fulfilled
6  COc1cc(COc2cccc(COc3cc(OC)cc4oc(-c5cn6nc(OC)sc6n5)cc34)c2)cc(OC)c1          fulfilled
